Recorded values, source patent US20080200428A1.

# System: IGR-OV1 human ovary carcinoma cells
# protocol_summary: In-vitro antiproliferative activity, MTT test
# Type: cell-based
# experimental_context: 5 days treatment, MTT on day 6, read-out: IC50, concentration necessary to reduce cell growth to 50% of control
# Method: Antiproliferative activity of the conjugates was determined on 2 lines of human mammary carcinoma (MCF-7, MDA-MB-231), and on 2 lines of human ovary carcinoma (SK-OV-3, IGR-OV1) with different Reduced Folate Carrier (RFC) expression, and on a non-tumour line originating from healthy mammary ductal epithelium (HBL-100 line). […]
measure_name: IC50 (nM)
Numbers only, in nM.

Query :: # input compound: CN(Cc1cnc2nc(N)nc(N)c2n1)c1ccc(C(=O)N[C@@H](CCC(=O)O)C(=O)O)cc1 [MTX-Na, methotrexate, reference compound] ; wanted: its IC50
Result :: 140

====

# Test system: SK-OV-3 human ovary carcinoma cells
# protocol_summary: In-vitro antiproliferative activity, MTT test
# Assay type: cell-based
# experimental_context: 5 days treatment, MTT on day 6, read-out: IC50, concentration necessary to reduce cell growth to 50% of control
measure_name: IC50 (nM)
Numbers only, in nM.

Query :: # input molecule: CN(Cc1cnc2nc(N)nc(N)c2n1)c1ccc(C(=O)N[C@@H](CCC(=O)O)C(=O)O)cc1 [MTX-Na, methotrexate, reference compound] ; wanted: its IC50
Result :: 41
